measurement-notes: Solubility trials: saturation concentration of the oxazaphosphorine in water / aqueous urea solution
experimental-context: aqueous urea solution, Ifosfamid-Endkonzentration, Harnstoff-Startkonzentration 7,0 % (G/V); Harnstoff-Endkonzentration 4,6 % (G/G)
parameter-measured: solubility (mg/mL)
Numbers only; they are read as mg/mL.

Req: // query solubility value for entry O=P1(NCCCl)OCCCN1CCCl (stereo not shown)
Resp: 169

###

measurement-notes: Solubility trials: saturation concentration of the oxazaphosphorine in water / aqueous urea solution
experimental-context: aqueous urea solution, Cyclophosphamid-Endkonzentration, Harnstoff-Startkonzentration 10 % (G/V); Harnstoff-Endkonzentration 9,1 % (G/G)
parameter-measured: solubility (mg/mL)
Numbers only; they are read as mg/mL.

Req: // query solubility value for entry O=P1(N(CCCl)CCCl)NCCCO1 (stereo not shown) [Cyclophosphamid]
Resp: 87

###

measurement-notes: Solubility trials: saturation concentration of the oxazaphosphorine in water / aqueous urea solution
experimental-context: water, Cyclophosphamid-Endkonzentration, Harnstoff-Startkonzentration 0 % (G/V); Harnstoff-Endkonzentration 0 % (G/G)
parameter-measured: solubility (mg/mL)
Numbers only; they are read as mg/mL.

Req: // query solubility value for entry O=P1(N(CCCl)CCCl)NCCCO1 (stereo not shown) [Cyclophosphamid]
Resp: 61

###

measurement-notes: Solubility trials: saturation concentration of the oxazaphosphorine in water / aqueous urea solution
experimental-context: aqueous urea solution, Ifosfamid-Endkonzentration, Harnstoff-Startkonzentration 20 % (G/V); Harnstoff-Endkonzentration 15,8 % (G/G)
parameter-measured: solubility (mg/mL)
Numbers only; they are read as mg/mL.

Req: // query solubility value for entry O=P1(NCCCl)OCCCN1CCCl (stereo not shown)
Resp: 483

###

measurement-notes: Solubility trials: saturation concentration of the oxazaphosphorine in water / aqueous urea solution
experimental-context: aqueous urea solution, Ifosfamid-Sättigungskonzentration, bei geeigneter Harnstoffkonzentration
parameter-measured: solubility

Req: // query solubility value for entry O=P1(NCCCl)OCCCN1CCCl (stereo not shown)
Resp: ~500 mg/mL

###

measurement-notes: Solubility trials: saturation concentration of the oxazaphosphorine in water / aqueous urea solution
experimental-context: aqueous urea solution, Ifosfamid-Endkonzentration, Harnstoff-Startkonzentration 5,0 % (G/V); Harnstoff-Endkonzentration 3,8 % (G/G)
parameter-measured: solubility

Req: // query solubility value for entry O=P1(NCCCl)OCCCN1CCCl (stereo not shown)
Resp: 153 mg/mL

###

measurement-notes: Solubility trials: saturation concentration of the oxazaphosphorine in water / aqueous urea solution
experimental-context: aqueous urea solution, Ifosfamid-Endkonzentration, Harnstoff-Startkonzentration 2,0 % (G/V); Harnstoff-Endkonzentration 1,6 % (G/G)
parameter-measured: solubility (mg/mL)
Numbers only; they are read as mg/mL.

Req: // query solubility value for entry O=P1(NCCCl)OCCCN1CCCl (stereo not shown)
Resp: 132

###

measurement-notes: Solubility trials: saturation concentration of the oxazaphosphorine in water / aqueous urea solution
experimental-context: water, Ifosfamid-Endkonzentration, Harnstoff-Startkonzentration 0 % (G/V); Harnstoff-Endkonzentration 0 % (G/G)
parameter-measured: solubility (mg/mL)
Numbers only; they are read as mg/mL.

Req: // query solubility value for entry O=P1(NCCCl)OCCCN1CCCl (stereo not shown)
Resp: 118

###

measurement-notes: Solubility trials: saturation concentration of the oxazaphosphorine in water / aqueous urea solution
experimental-context: aqueous urea solution, Ifosfamid-Endkonzentration, Harnstoff-Startkonzentration 12,5 % (G/V); Harnstoff-Endkonzentration 7,0 % (G/G)
parameter-measured: solubility (mg/mL)
Numbers only; they are read as mg/mL.

Req: // query solubility value for entry O=P1(NCCCl)OCCCN1CCCl (stereo not shown) [Ifosfamid]
Resp: 412
